This listing pairs binders with measured kon.
# Tested system: T1, canine FcRn (UniProtKB-E2ROL6 [FcRn] and UniProtKB-E2RN10 [canine beta-2-microglobulin]) (canine)
# T1 construct: Soluble analyte injected in SPR
# Protocol description: SPR Biacore 8K, pH 5.5, Fc captured on BSA via SASA tag, FcRn 100-800 nM
Numeric only. Scale: M⁻¹ s⁻¹

Reported kon, binder canine IgG.B Fc (CH2-CH3) YTE variant (L252Y/A254T/T256E) (Fc fusion) APEMLGGPSVFIFPPKPKDTLYITREPEVTCVVVDLDPEDPEVQISWFVDGKQMQTAKTQPREEQFNGTYRVVSVLPIGHQDWLKGKQFTCKVNNKALPSPIERTISKARGQAHQPSVYVLPPSREELSKNTVSLTCLIKDFFPPDIDVEWQSNGQQEPESKYRTTPPQLDEDGSYFLYSKLSVDKSRWQRGDTFICAVMHEALHNHYTQESLSHSPGK : ____ 250000

Reported kon, binder canine IgG.B Fc (CH2-CH3) variant N434W (Fc fusion) APEMLGGPSVFIFPPKPKDTLLIARTPEVTCVVVDLDPEDPEVQISWFVDGKQMQTAKTQPREEQFNGTYRVVSVLPIGHQDWLKGKQFTCKVNNKALPSPIERTISKARGQAHQPSVYVLPPSREELSKNTVSLTCLIKDFFPPDIDVEWQSNGQQEPESKYRTTPPQLDEDGSYFLYSKLSVDKSRWQRGDTFICAVMHEALHWHYTQESLSHSPGK : ____ 446000

Reported kon, binder canine IgG.B Fc (CH2-CH3) variant N434Y (Fc fusion) APEMLGGPSVFIFPPKPKDTLLIARTPEVTCVVVDLDPEDPEVQISWFVDGKQMQTAKTQPREEQFNGTYRVVSVLPIGHQDWLKGKQFTCKVNNKALPSPIERTISKARGQAHQPSVYVLPPSREELSKNTVSLTCLIKDFFPPDIDVEWQSNGQQEPESKYRTTPPQLDEDGSYFLYSKLSVDKSRWQRGDTFICAVMHEALHYHYTQESLSHSPGK : ____ 520000

Reported kon, binder canine IgG.B Fc (CH2-CH3) variant L252Y (Fc fusion) APEMLGGPSVFIFPPKPKDTLYIARTPEVTCVVVDLDPEDPEVQISWFVDGKQMQTAKTQPREEQFNGTYRVVSVLPIGHQDWLKGKQFTCKVNNKALPSPIERTISKARGQAHQPSVYVLPPSREELSKNTVSLTCLIKDFFPPDIDVEWQSNGQQEPESKYRTTPPQLDEDGSYFLYSKLSVDKSRWQRGDTFICAVMHEALHNHYTQESLSHSPGK : ____ 275000

Reported kon, binder canine IgG.B Fc (CH2-CH3) variant N434R (Fc fusion) APEMLGGPSVFIFPPKPKDTLLIARTPEVTCVVVDLDPEDPEVQISWFVDGKQMQTAKTQPREEQFNGTYRVVSVLPIGHQDWLKGKQFTCKVNNKALPSPIERTISKARGQAHQPSVYVLPPSREELSKNTVSLTCLIKDFFPPDIDVEWQSNGQQEPESKYRTTPPQLDEDGSYFLYSKLSVDKSRWQRGDTFICAVMHEALHRHYTQESLSHSPGK : ____ 440000

Continue with the binder presented below.
Reported kon, binder canine IgG.B Fc (CH2-CH3) variant N434H (Fc fusion) APEMLGGPSVFIFPPKPKDTLLIARTPEVTCVVVDLDPEDPEVQISWFVDGKQMQTAKTQPREEQFNGTYRVVSVLPIGHQDWLKGKQFTCKVNNKALPSPIERTISKARGQAHQPSVYVLPPSREELSKNTVSLTCLIKDFFPPDIDVEWQSNGQQEPESKYRTTPPQLDEDGSYFLYSKLSVDKSRWQRGDTFICAVMHEALHHHYTQESLSHSPGK : ____ 411000
